Read-out record for human adenosine receptor A2A (A2AR) (Homo sapiens): pKi
Conceptually, pKi converts a concentration in mol/L into minus its log10.

Look over these answered cases.
Request: Lab note: need pKi with human adenosine receptor A2A (A2AR) (Homo sapiens) for entry COCCOc1ccc(N2CCN(C(=O)C(CC(C)C)n3ncc4c3nc(N)n3nc(-c5ccco5)nc43)CC2)cc1 (single isomer, unassigned) [Compound A16b] , please look it up.
Sequence (P29274 whole entry): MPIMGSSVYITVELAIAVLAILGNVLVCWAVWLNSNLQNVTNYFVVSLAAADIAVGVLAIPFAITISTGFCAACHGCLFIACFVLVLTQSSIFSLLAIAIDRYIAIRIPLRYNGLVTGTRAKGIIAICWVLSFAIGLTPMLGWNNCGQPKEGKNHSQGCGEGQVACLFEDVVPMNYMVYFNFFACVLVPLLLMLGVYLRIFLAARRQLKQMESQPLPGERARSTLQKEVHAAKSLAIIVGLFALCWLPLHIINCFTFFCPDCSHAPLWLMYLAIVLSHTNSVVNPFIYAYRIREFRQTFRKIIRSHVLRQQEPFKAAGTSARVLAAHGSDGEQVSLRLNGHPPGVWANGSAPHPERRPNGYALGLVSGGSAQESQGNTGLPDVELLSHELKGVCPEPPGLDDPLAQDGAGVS
Response: 7.82

Request: Lab note: need pKi with human adenosine receptor A2A (A2AR) (Homo sapiens) for entry CCCC(C(=O)N1CCN(c2ccc(OCCOCCOC)cc2)CC1)n1ncc2c1nc(N)n1nc(-c3ccco3)nc21 (single isomer, unassigned) [Compound A6a] , please look it up.
Response: 8.85

Okay, next one:
Request: Lab note: need pKi with human adenosine receptor A2A (A2AR) (Homo sapiens) for entry CCCC(C(=O)N1CCN(c2ccc(OCCOC)cc2)CC1)n1ncc2c1nc(N)n1nc(-c3ccco3)nc21 (single isomer, unassigned) [Compound A5a] , please look it up.
Response: 8.77

* * *

# system_under_test: human A2A receptor (A2AR) (Homo sapiens)
# Sequence (P29274 whole entry): as above
# assay_overview: Luciferase reporter assay (HEK293-A2AR-luc2p/CRE/Hygro cells, 3 nM CGS21680)
# reported_conditions: 3 nM CGS21680, 5 h incubation
Listing of entries alongside the reported pIC50.
Conceptually, pIC50 converts a concentration in mol/L into minus its log10.

Look over these answered cases.
Request: Give its pIC50 value. Item: CC(C(=O)N1CCN(c2cccc(C(=O)N3CCCCC3)c2)CC1)(c1ccccc1)n1ncc2c1nc(N)n1nc(-c3ccco3)nc21 (stereo not shown)
Response: 7.86

Request: Give its pIC50 value. Item: CCCCC(C(=O)N1CCN(c2ccc(OCCOCCOC)cc2)CC1)n1ncc2c1nc(N)n1nc(-c3ccco3)nc21 (single isomer, unassigned) [Compound A11b]
Response: 6.92

Continuing:
Request: Give its pIC50 value. Item: COCCOc1ccc(N2CCN(C(=O)[C@@](C)(c3ccccc3)n3ncc4c3nc(N)n3nc(-c5ccco5)nc43)CC2)c(F)c1 [Compound A64b]
Response: 8.66

Request: Give its pIC50 value. Item: Nc1nc2c(cnn2C(C(=O)N2CCCc3ccccc32)c2ccccc2)c2nc(-c3ccco3)nn12 (stereo not shown)
Response: 8.54

* * *

# assay_overview: Mouse BBB assay
# Type: in vivo
# reported_conditions: brain, oral 10 mg/kg, read-out: Brain
assay_metric: concentration at 1 h
Respond with the figure and its unit, in that order.

Look over these answered cases.
Request: Give its concentration at 1 h value. Item: CCCC(C(=O)N1CCN(c2ccc(OCCOC)cc2)CC1)n1ncc2c1nc(N)n1nc(-c3ccco3)nc21 (single isomer, unassigned)
Response: 5.1 ng/g

Request: Give its concentration at 1 h value. Item: CCCC(C(=O)N1CCN(c2ccc(OCCOCCOC)cc2)CC1)n1ncc2c1nc(N)n1nc(-c3ccco3)nc21 (single isomer, unassigned)
Response: 4.2 ng/g

Request: Give its concentration at 1 h value. Item: COCCOc1ccc(N2CCN(C(=O)C(c3ccccc3)n3ncc4c3nc(N)n3nc(-c5ccco5)nc43)CC2)cc1 (single isomer, unassigned) [Compound A13b]
Response: 54 ng/g

Okay, next one:
Request: Give its concentration at 1 h value. Item: CCCCC(C(=O)N1CCN(c2ccc(OCCOC)cc2)CC1)n1ncc2c1nc(N)n1nc(-c3ccco3)nc21 (single isomer, unassigned) [Compound A10a]
Response: 20 ng/g
